assay: PET hydrolysis, aromatic products released after 48 h (umol product/mg enzyme); higher = more PET depolymerization activity; settings: substrate: aFilm; 40 °C; pH 4.5
Assignment: determine reported PET hydrolysis for the given sequences.

>>> result("LTPSPTPPPTGGTGGCPADAICRGETPGSYSANGPYGSRSYTLSRIQTPGGATVYYPANAEPPFSGLVFTPPYTGSQFMYRAWGPFFASHGIVMVTMDTRTTLDSVDQRAAQQKQVLDALKAENTRSASPLRGKLDTSRLGAVGWSMGGGATWINSAEYSGLKTAMSLAGHNLSALDINARGSNTRVPTLIMNGALDATYLGGLGQSLGVYNNIPRGIPKVIYEVSSAGHFSWGSPTSAGRSVAQIALAFQKTFLDGDTRWATYIRRPSSGVATWRTANLP [ESM175]")
"< 3"
>>> result("ADNPYQRGPDPTAASIAAVTGPFATASVTVPRGNGFGGGVIYYPTDTSQGTFGGIAISPGLNGTWPGIAWLGPRLASQGFVVFGIETNNLNDSPTSRGTQLLAALDYLTGSSSVRTRVDAGRLAVAGHSMGGGGALDAALRRPSLRATIGNAPHLPSGSLANDRVPTLIYAMQNDTLVPPSRLTSLYNTVPATTERGYLEITGAGHNYIGQPSTILARTMIPWLKIFVDDDARYSQFLCPLTDRSGISQYQSSCPLITTSPTTGPTAQPTTAAPTTTPTTPPVGGPCEATHRTVNSWSGGYQGEVTVRAGSAAINGWTVSWTLGSGQTINQVWGGALTASGTAATVRNETWNGPVAAGASTTFGYIATGNAPTQPLACSAR [ESM060]")
"< 3"

Fill in PET hydrolysis for record CVTPAPPPAPDVATVTVGAGNGFGGGTIYYPQGATGRLPVVAASPGFTENQNAVGWYGPLLAREGNIVITIDTNSPFDSPTSRADQLLAAIDYVVNRSSVASIADGSRTAVMGHSMGGGGSLEAALKRPGLKAIIPLAPWNTTTNFSGVRVPTLIVGCQNDAIAPVGSHAEPFYQSIPATTPKAYLEIAGGDHFCTNSENPTIANYVVAWTDRFLQGDTSASSRLCPPPPAGGSISEYRANCPY [ESM050]
< 3

* * *

Please respond with reported PET hydrolysis for every item in the list.
test: PET hydrolysis, aromatic products released after 48 h (umol product/mg enzyme); higher = more PET depolymerization activity; conditions: substrate: aFilm; 40 °C; pH 4.5

>>> result("ADNPYERGPAPTEASVEAPRGPYAVSETTVSPLAVTGFGGGTVYYPTSTADGTFGAIAVSPGYTGTQSSIAWLGPRLASQGFVVFTIDTLTTLDQPDSRGRQLLAALDYLTQKSSVRGRIDSTRLGVMGHSMGGGGSLEAAKSRPSLQAAIPLTPWNLDKTWPEVATPTLIFGADGDTIAPVATHAEPFYTSLPASLDRAYLELNGATHFTPNTSNTTIAKYSIAWLKRFIDDDTRYEQFLCPLPRPGLTIEEYRGNCPHTS [TEP117]")
"< 3"
>>> result("ADNPYQRGPNPTAASIAATTGPFAIASVSVARGNGFGGGVIYYPTDTSQGTFGAIAISPGLNGTWPGIAWLGPRLASQGFVVFGIETNNLNDSPTSRGTQLLAALDYLTQRSSVRTRVDATRLAVAGHSMGGGGALDAALRRPSLQAAIGNAPYLPSGNLSTDRVPTLIYAMQNDTLVPPSRLTTMYNTIPATTERGYIQITGAGHNYIGQPSTNLARTMIPWFKIFIDNDTRFSQFLCPLSNMSGISQYRNSCPLI [ESM159]")
"< 3"

Read the next record carefully.
Respond only with PET hydrolysis recorded for ASPYQRGPNPTAASIAATTGPFAIASITVPRGNGFGGGVIYYPTSTSQGTFGGIAISPGLNGTWSGISWLGPRLASQGFVVFGIETNNLNDSPTSRGTQLLAALDYLTQRSSVRSRLDANRLAVMGHSMGGGGALDAALRRPTLKATIGNAPHLPSGSLANDRVPTLIYAMQNDTLVTPARLTSLYNTIPAATERAYIEVTGAGHNYIGQPSTTLARTMIPWLKIFIDSDTRYAPFLCPLNDRSGIRQYRNSCPLI [ESM128]
< 3
